These entries and their values trace back to PubChem BioAssay AID602429.

Target: Small ubiquitin-related modifier 1 (Homo sapiens)
Test: modulators of SUMO1 protein-protein interactions, primary screen, biochemical, uHTS (AID 602429)
Conditions: SUMO1 binding to a labelled peptide, TR-FRET, 1 h; at 20 µM
The campaign covered roughly 360,000 compounds. About 1,200 (0.33%) were called active. Rule as the data show it: active = inhibition above about 37%; inactive = the rest. Shown is part of a subset that was picked to be rich in actives.
Thanks in advance; please answer with one of these: active, inactive

In: So what was the verdict on COc1cccc(N2C(=O)NC(=O)/C(=C\c3ccc([N+](=O)[O-])s3)C2=O)c1 in this test?
Out: active

In: So what was the verdict on O=C1NC(=O)C(CCOc2ccccc2)(CCc2ccccc2)C(=O)N1 in this test?
Out: inactive

In: So what was the verdict on CCCCCn1c(=O)c(C(=O)Nc2c(C)n(C)n(-c3ccccc3)c2=O)c(O)c2ccccc21 in this test?
Out: inactive

Shifting focus to the compound that follows.
In: So what was the verdict on Cc1nn(Cc2ccccc2Cl)c(Cl)c1C(=O)OC(C(=O)NC(N)=O)C(C)C (centres undefined) in this test?
Out: inactive
